Catalogue of binders with associated Kd
Molecular target: T1, Human BCMA (human, UniProt Q02223 1-54, limits assumed)
T1 construct: Soluble analyte in SPR; construct not described; also called huBCMA; B-cell maturation antigen
T1 sequence (looked up): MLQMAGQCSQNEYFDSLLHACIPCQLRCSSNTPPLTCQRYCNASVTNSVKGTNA
Test: SPR, IgG immobilised, 37 C
Give the quantity in nM, number only.

Answered cases to consult:
>>> value("L3.PY/L1.FF/H3.TAQ (antibody, V domains shown, IgG) VH: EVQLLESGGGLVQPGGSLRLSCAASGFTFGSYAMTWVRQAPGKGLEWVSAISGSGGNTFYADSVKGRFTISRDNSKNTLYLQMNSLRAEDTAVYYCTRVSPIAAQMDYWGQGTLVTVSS VL: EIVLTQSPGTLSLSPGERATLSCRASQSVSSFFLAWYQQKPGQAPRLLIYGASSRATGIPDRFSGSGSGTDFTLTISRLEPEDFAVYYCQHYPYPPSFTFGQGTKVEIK")
0.54
>>> value("L3.PY/L1.AH/H2.QL (antibody, V domains shown, IgG) VH: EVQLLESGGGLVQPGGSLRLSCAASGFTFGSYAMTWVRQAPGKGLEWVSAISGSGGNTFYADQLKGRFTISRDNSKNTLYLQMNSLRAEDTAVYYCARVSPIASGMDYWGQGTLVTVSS VL: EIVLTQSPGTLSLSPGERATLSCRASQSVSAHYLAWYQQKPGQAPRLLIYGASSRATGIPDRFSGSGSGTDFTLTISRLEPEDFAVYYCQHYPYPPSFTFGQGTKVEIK")
0.53
>>> value("L3.PY/L3.KF/H2.LT (antibody, V domains shown, IgG) VH: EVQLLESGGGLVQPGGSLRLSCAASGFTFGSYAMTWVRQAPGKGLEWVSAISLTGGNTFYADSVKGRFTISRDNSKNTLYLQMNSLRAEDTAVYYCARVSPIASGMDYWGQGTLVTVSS VL: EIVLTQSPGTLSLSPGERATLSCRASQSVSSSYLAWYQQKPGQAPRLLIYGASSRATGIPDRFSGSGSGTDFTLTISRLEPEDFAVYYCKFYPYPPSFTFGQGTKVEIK")
0.69
>>> value("L3.PY/L1.PS/H2.YQ (antibody, V domains shown, IgG) VH: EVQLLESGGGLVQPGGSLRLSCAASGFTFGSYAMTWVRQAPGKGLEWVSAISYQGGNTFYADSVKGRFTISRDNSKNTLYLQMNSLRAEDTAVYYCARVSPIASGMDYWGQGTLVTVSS VL: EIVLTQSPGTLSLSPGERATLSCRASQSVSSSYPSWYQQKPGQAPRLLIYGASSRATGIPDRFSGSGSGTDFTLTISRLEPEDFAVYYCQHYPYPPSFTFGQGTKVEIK")
1.28
>>> value("L3.PY/L1.PS/H2.LT (antibody, V domains shown, IgG) VH: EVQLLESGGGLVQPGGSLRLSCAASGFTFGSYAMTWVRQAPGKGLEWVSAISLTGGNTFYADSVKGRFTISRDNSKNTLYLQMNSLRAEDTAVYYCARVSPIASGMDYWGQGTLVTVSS VL: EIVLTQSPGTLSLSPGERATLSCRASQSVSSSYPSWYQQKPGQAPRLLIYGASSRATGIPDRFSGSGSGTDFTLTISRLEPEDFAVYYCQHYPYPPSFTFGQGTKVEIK")
1.37
>>> value("L3.PY/L1.FF/H3.YA (antibody, V domains shown, IgG) VH: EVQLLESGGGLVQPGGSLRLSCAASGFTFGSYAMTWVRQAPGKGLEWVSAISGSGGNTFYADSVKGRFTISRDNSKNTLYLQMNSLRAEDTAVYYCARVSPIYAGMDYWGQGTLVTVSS VL: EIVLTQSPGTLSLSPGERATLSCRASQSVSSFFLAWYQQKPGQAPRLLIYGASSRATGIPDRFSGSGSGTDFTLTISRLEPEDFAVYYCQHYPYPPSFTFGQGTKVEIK")
0.51

So what does the record say about Kd for L3.PY/L3.KY/H2.YQ (antibody, V domains shown, IgG) VH: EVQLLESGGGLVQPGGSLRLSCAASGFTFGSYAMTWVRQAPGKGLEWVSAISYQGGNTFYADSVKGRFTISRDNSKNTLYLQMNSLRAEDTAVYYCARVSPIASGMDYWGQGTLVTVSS VL: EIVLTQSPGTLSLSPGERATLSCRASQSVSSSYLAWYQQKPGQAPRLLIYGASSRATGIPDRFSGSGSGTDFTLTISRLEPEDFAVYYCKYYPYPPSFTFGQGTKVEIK ?
0.77

Then L3.PY/L3.KY/H2.DY (antibody, V domains shown, IgG) VH: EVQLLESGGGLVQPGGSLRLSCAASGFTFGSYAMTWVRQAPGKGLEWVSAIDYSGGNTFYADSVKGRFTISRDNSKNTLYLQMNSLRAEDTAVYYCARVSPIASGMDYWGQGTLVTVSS VL: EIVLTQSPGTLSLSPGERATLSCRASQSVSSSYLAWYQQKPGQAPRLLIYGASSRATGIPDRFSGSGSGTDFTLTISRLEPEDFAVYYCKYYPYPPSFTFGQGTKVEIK ?
0.2
